Where do the numbers come from? From patent US12201679B2.

target: full-length recombinant MrkA protein (Klebsiella pneumoniae, UniProt P12267); format: binding; details: sandwich ELISA, alanine scan and analogues
Bridge positions count the residues as written; N and C are the ends. Square brackets hold non-standard residues; d marks the D form. Triazole bridges read from a SMILES are 1,4-linked. Peptide text beside a SMILES is read from it. * marks the point of attachment. Biotin = O=C1N[C@H]2[C@H](CS[C@H]2CCCCC(=O)*)N1; Lys(N3) = [N-]=[N+]=NCCCC[C@H](N)C(=O)O; PEG5 = NCCOCCOCCOCCOCCOCCC(=O)O; Pra = C#CC[C@H](N)C(=O)O
Endpoint: binding to full-length MrkA compared to cy(LLFFF)

C[C@@H](O)[C@@H]1NC(=O)[C@@H](NC(=O)CCOCCOCCOCCOCCOCCNC(=O)CCCC[C@@H]2SC[C@@H]3NC(=O)N[C@@H]32)Cc2cn(nn2)CCCC[C@@H](C(N)=O)NC(=O)[C@H](Cc2ccccc2)NC(=O)[C@H](Cc2ccccc2)NC(=O)[C@H](Cc2ccccc2)NC(=O)[C@H]([C@@H](C)O)NC1=O [cy(TTFFF)] ({Biotin-PEG5}-[Pra]TTFFF[Lys(N3)]-NH2; triazole 1-7; N-terminus assumed)
lower affinities
CC(C)C[C@@H]1NC(=O)[C@H](CCCNC(=N)N)NC(=O)[C@H](Cc2c[nH]cn2)NC(=O)[C@H](C(C)C)NC(=O)CNC(=O)[C@@H](NC(=O)CCOCCOCCOCCOCCOCCNC(=O)CCCC[C@@H]2SC[C@@H]3NC(=O)N[C@@H]32)Cc2cn(nn2)CCCC[C@@H](C(N)=O)NC1=O [cy(GVHRL)] ({Biotin-PEG5}-[Pra]GVHRL[Lys(N3)]-NH2; triazole 1-7)
lower affinities
CC(C)C[C@@H]1NC(=O)[C@H](Cc2c[nH]cn2)NC(=O)[C@H](CCCNC(=N)N)NC(=O)[C@H](Cc2ccc(O)cc2)NC(=O)[C@@H](NC(=O)CCOCCOCCOCCOCCOCCNC(=O)CCCC[C@@H]2SC[C@@H]3NC(=O)N[C@@H]32)Cc2cn(nn2)CCCC[C@@H](C(N)=O)NC(=O)CNC1=O [cy(YRHLG)] ({Biotin-PEG5}-[Pra]YRHLG[Lys(N3)]-NH2; triazole 1-7)
lower affinities
